Data provenance: paper PMC6508677

subject_of_test: PfHT (Plasmodium falciparum, UniProt Q7KWJ5)
Sequence (Q7KWJ5 whole entry): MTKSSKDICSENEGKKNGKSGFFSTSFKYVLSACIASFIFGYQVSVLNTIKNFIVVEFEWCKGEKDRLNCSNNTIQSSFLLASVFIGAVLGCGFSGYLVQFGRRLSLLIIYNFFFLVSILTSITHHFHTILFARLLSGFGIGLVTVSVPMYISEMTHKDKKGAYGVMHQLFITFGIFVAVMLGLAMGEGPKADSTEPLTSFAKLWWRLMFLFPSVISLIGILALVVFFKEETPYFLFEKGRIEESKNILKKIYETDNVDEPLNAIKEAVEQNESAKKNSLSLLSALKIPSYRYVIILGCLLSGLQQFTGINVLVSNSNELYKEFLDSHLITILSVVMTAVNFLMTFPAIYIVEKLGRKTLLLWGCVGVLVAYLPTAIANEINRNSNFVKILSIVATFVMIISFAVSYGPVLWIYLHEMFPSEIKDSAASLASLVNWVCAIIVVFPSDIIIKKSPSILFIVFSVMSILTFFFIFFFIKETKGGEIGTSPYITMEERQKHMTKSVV
assay_protocol: 2-DG uptake by HEK293 cells overexpressing PfHT
Type: cell-based
Parameters: expressed in transfected cells; host or cells: HEK293 (HEK293-FLIP, native hGLUT1 knocked down by shRNA)
measurement_parameters: HEK293, 4 min, read-out: 2-DG uptake (percent uptake relative to vehicle), AVE, PfHT; 20 µM compound
property: remaining activity at 20 µM (%)
Write the value in % as a bare number.

- molecule: "COc1cc(/C=C2\\COC/C(=C\\c3cc(OC)c(OC)c(OC)c3)C2=O)cc(OC)c1OC [WU-5]"
  property: "remaining activity at 20 µM"
  measured_result: 30.9
- molecule: "Cc1ccc(S(=O)(=O)CCNC(=O)c2c(-c3c(Cl)cccc3Cl)noc2C)cc1 [WU-1]"
  property: "remaining activity at 20 µM"
  measured_result: 30.2
- molecule: "COc1c(Br)cc([N+](=O)[O-])c(OC)c1C(=O)NC(=O)Nc1c(C)cccc1Cl [WU-2]"
  property: "remaining activity at 20 µM"
  measured_result: 26.3

As a next step, examine the molecule that follows.
Query COc1cc(/C=N/NC(=O)c2cc(-c3ccccc3)sc2N)cc(OC)c1OC [WU-3] on PfHT (Plasmodium falciparum, UniProt Q7KWJ5); remaining activity at 20 µM returned: 42.7

----------
The following compounds are shown together with reported IC50 values.
subject_of_test: FTPfHT (Plasmodium falciparum)
assay_protocol: 2-DG uptake by HEK293 cells overexpressing FLAG-tagged PfHT (FTPfHT)
Assay type: cell-based
Parameters: the 38–40 kDa band represents full length PfHT; expressed in transfected cells; host or cells: HEK293-FLIP (HEK293)
measurement_parameters: IC50 for inhibition of 2-DG uptake, HEK293 cells overexpressing FTPfHT

- chemical_string: "Cc1ccc(S(=O)(=O)CCNC(=O)c2c(-c3c(Cl)cccc3Cl)noc2C)cc1"
  IC50: "19.5 µM"

So the reported IC50 for C=C1[C@@H](C)[C@H]2[C@H](Cc3ccccc3)NC(=O)[C@]23OC(=O)/C=C/[C@H](O)CCC[C@@H](C)C/C=C/[C@H]3[C@@H]1O , on FTPfHT (Plasmodium falciparum), turned out to be 29.9 µM

----------
subject_of_test: hGLUT2 (Homo sapiens, UniProt P11168)
Construct: expressed in transfected cells; host or cells: HEK293 (HEK293-FLIP, native hGLUT1 knocked down by shRNA)
Sequence (P11168 1-524): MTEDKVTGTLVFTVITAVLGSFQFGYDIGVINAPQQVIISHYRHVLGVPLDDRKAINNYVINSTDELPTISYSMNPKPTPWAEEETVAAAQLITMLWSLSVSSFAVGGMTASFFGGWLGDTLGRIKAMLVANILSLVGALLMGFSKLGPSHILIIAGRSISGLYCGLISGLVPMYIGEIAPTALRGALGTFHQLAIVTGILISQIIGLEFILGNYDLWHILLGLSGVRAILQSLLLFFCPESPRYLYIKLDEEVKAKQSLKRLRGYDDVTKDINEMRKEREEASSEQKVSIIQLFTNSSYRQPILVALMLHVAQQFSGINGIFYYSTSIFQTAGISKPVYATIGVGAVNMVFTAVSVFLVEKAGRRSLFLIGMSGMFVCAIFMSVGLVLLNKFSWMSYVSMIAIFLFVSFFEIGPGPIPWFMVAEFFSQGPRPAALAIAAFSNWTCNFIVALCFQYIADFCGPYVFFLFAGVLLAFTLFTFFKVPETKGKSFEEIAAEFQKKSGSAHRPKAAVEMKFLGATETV
assay_protocol: 2-DG uptake by HEK293 cells overexpressing hGLUT2
Format: cell-based
measurement_parameters: IC50 for inhibition of 2-DG uptake, individual experiments, GLUT2; Expt 1-3
property: IC50 (µM)
Dear colleague, please return just the value in µM, with no unit written.

With hGLUT2 (Homo sapiens, UniProt P11168) as the test system, Cc1ccc(S(=O)(=O)CCNC(=O)c2c(-c3c(Cl)cccc3Cl)noc2C)cc1 showed IC50 of 52.4

----------
subject_of_test: hGLUT2 (Homo sapiens)
Construct: expressed in transfected cells; host or cells: HEK293 (HEK293-FLIP, native hGLUT1 knocked down by shRNA)
assay_protocol: 2-DG uptake by HEK293 cells overexpressing hGLUT2
Format: cell-based
measurement_parameters: IC50 for inhibition of 2-DG uptake, GLUT2 cell line; mean/reported value
property: pIC50
On this scale, pIC50 is minus log10 of a concentration expressed in M (mol/L).

So, COc1c(Br)cc([N+](=O)[O-])c(OC)c1C(=O)NC(=O)Nc1c(C)cccc1Cl ? Its pIC50 was 4.80

----------
subject_of_test: PfHT (Plasmodium falciparum, UniProt Q7KWJ5)
assay_protocol: 2-DG uptake by HEK293 cells overexpressing PfHT
Format: cell-based
Set-up: expressed in transfected cells; host or cells: HEK293 (HEK293-FLIP, native hGLUT1 knocked down by shRNA)
measurement_parameters: read-out: IC50 for inhibition of 2-DG uptake; HEK293 cells overexpressing PfHT
From the text: Generation of HEK293 cells overexpressing PfHT and human GLUTs 1–4 were described elsewhere. Briefly, HEK293 cells were transfected with pcDNA3.1 FLII12Pglu-7006 (Addgene), containing the fluorescence resonance energy transfer (FRET) glucose sensor (HEK293-FLIP) and PfHT, human GLUT1 (hGLUT1), hGLUT2, hGLUT3, hGLUT4, hGLUT5 or hGLUT8 using Optifect (Life Technologies) according to manufacturer’s specifications. […]
property: pIC50
Worth noting: pIC50 values are minus log10 of concentrations stated in mol/L.

Field pIC50 (system: PfHT (Plasmodium falciparum, UniProt Q7KWJ5)) for entry CC1OC[C@H]2O[C@H](O)[C@H](O)[C@@H](O)[C@@H]2O1 (stereo partly drawn) [Ethylideneglucose, 4,6-O-ethylidene-α-D-glucose, reference compound] = 2.23

----------
subject_of_test: PfHT (Plasmodium falciparum)
assay_protocol: 2-DG uptake by HEK293 cells overexpressing PfHT
Format: cell-based
Parameters: expressed in transfected cells; host or cells: HEK293 (HEK293-FLIP, native hGLUT1 knocked down by shRNA)
measurement_parameters: HEK293, 4 min, read-out: 2-DG uptake (percent uptake relative to vehicle), AVE, PfHT; 0.001 µM compound
property: remaining activity at 0.001 µM (%)
Reply numerically in %, unit not repeated.

- chemical_string: "COc1cc(/C=C2\\COC/C(=C\\c3cc(OC)c(OC)c(OC)c3)C2=O)cc(OC)c1OC"
  property: "remaining activity at 0.001 µM"
  unit_name: "%"
  measured_result: 100
- chemical_string: "Cc1ccc(S(=O)(=O)CCNC(=O)c2c(-c3c(Cl)cccc3Cl)noc2C)cc1"
  property: "remaining activity at 0.001 µM"
  unit_name: "%"
  measured_result: 100
- chemical_string: "COc1c(Br)cc([N+](=O)[O-])c(OC)c1C(=O)NC(=O)Nc1c(C)cccc1Cl"
  property: "remaining activity at 0.001 µM"
  unit_name: "%"
  measured_result: 97.7

Form field remaining activity at 0.001 µM, entry COc1cc(/C=N/NC(=O)c2cc(-c3ccccc3)sc2N)cc(OC)c1OC : 100

----------
Collected remaining activity at 10 µM values appear next to each entry.
subject_of_test: PfHT (Plasmodium falciparum)
assay_protocol: 2-DG uptake by HEK293 cells overexpressing PfHT
Type: cell-based
Set-up: expressed in transfected cells; host or cells: HEK293 (HEK293-FLIP, native hGLUT1 knocked down by shRNA)
measurement_parameters: HEK293, 4 min, read-out: 2-DG uptake (percent uptake relative to vehicle), AVE, PfHT; 10 µM compound
Report only the number, with the unit % understood.

Take a look at these entries with their results.
- molecule: "COc1c(Br)cc([N+](=O)[O-])c(OC)c1C(=O)NC(=O)Nc1c(C)cccc1Cl [WU-2]"
  unit_name: "%"
  remaining activity at 10 µM: 39.9
- molecule: "COc1cc(/C=N/NC(=O)c2cc(-c3ccccc3)sc2N)cc(OC)c1OC [WU-3]"
  unit_name: "%"
  remaining activity at 10 µM: 62
- molecule: "Cc1ccc(S(=O)(=O)CCNC(=O)c2c(-c3c(Cl)cccc3Cl)noc2C)cc1 [WU-1]"
  unit_name: "%"
  remaining activity at 10 µM: 42.3

Note: attention shifts to another entry.
// COc1cc(/C=C2\COC/C(=C\c3cc(OC)c(OC)c(OC)c3)C2=O)cc(OC)c1OC [WU-5] : remaining activity at 10 µM value = 32

----------
subject_of_test: hGLUT8 (Homo sapiens, UniProt Q9NY64, E7R/E8R)
Construct: expressed in transfected cells; host or cells: HEK293 (HEK293-FLIP, native hGLUT1 knocked down)
Sequence (Q9NY64 1-477 E7R/E8R): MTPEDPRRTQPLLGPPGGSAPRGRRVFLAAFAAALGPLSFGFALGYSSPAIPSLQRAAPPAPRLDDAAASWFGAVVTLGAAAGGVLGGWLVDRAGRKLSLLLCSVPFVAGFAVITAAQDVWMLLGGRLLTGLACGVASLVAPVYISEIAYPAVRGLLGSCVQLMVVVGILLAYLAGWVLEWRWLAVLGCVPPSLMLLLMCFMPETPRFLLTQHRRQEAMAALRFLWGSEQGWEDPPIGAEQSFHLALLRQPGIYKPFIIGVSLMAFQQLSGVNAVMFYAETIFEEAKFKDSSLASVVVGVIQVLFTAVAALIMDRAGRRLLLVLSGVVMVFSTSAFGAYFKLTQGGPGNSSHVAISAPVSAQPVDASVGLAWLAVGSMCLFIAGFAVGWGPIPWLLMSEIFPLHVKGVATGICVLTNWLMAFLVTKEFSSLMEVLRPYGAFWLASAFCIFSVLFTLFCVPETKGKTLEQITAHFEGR
assay_protocol: [3H]-D-fructose uptake by HEK293 cells overexpressing hGLUT8
Type: cell-based
measurement_parameters: GLUT8 cell line; read-out: IC50, D-fructose (Frc) uptake
property: IC50
Include the unit right after the number.

Cc1ccc(S(=O)(=O)CCNC(=O)c2c(-c3c(Cl)cccc3Cl)noc2C)cc1 yielded IC50 of 22 µM
